Assay: Aqueous solubility
Format: physicochemical
Conditions: aqueous medium (not further specified); read-out: Aq. Solubility
measured parameter: solubility (µg/mL)
Respond with the bare value in µg/mL.

# input # return recorded solubility for input CCN(CC)Cc1ccc(OC)c(-c2cc3c(-c4ccc(C(=O)O)c(C(C)C)c4)ccnc3[nH]2)c1 [analogue 1]
# output 8

* * *

Target: full-length PfCLK3 recombinant protein (Plasmodium falciparum)
Sequence (Q8IIL5 1-699): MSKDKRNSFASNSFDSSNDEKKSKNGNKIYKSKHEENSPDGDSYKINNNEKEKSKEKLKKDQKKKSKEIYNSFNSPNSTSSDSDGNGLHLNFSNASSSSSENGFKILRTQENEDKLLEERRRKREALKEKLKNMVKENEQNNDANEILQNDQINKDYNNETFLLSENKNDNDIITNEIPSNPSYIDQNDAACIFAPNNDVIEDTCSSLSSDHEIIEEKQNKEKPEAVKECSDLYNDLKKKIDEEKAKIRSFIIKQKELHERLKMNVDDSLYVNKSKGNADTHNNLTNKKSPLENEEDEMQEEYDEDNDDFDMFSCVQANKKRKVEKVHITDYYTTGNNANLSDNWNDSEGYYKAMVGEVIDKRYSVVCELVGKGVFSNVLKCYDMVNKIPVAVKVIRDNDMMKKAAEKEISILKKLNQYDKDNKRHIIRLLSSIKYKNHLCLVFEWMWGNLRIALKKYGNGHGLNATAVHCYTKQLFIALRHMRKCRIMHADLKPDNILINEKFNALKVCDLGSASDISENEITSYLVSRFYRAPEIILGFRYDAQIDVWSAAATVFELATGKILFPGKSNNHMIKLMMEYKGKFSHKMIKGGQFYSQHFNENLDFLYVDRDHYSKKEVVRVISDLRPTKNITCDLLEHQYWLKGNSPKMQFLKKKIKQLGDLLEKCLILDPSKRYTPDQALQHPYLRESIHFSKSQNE
Assay: TR-FRET PfCLK3 in vitro kinase assay
Assay type: biochemical, P. falciparum
Conditions: TR-FRET, full-length recombinant PfCLK3; ± SEM, n = 3; read-out: PfCLK3 pIC50 (converted)
measured parameter: IC50 (nM)
Only the number, expressed in nM, is required.

Below, 5 compounds whose answers are already recorded.
# structure smiles, IC50, nM
records = [
    ("CCN(CC)Cc1ccc(OC)c(-c2cc3c(-c4ccc(C(=O)O)cc4)ccnc3[nH]2)c1", 31.6),
    ("CCN(CC)Cc1ccc(OC)c(-c2cc3c(-c4cccc(C(C)C)c4)ccnc3[nH]2)c1", 1000),
    ("CCN(CC)Cc1cccc(-c2cc3c(-c4ccc(C(=O)O)c(C(C)C)c4)ccnc3[nH]2)c1OC", 20),
    ("COc1ccc(CN2CCOCC2)cc1-c1cc2c(-c3ccc(C(=O)O)c(C(C)C)c3)ccnc2[nH]1", 10),
    ("CCN(CC)Cc1ccc(O)c(-c2cc3c(-c4ccc(C(=O)O)c(C(C)C)c4)ccnc3[nH]2)c1", 20),
]

Now look at this entry.
# input # return recorded IC50 for entry COc1ccc(CN(C)C)cc1-c1cc2c(-c3ccc(C(=O)O)c(C(C)C)c3)ccnc2[nH]1
# output 31.6

* * *

Assay: Microsomal stability
Type: in vitro ADME
Conditions: mouse liver microsomes; 1 μM compound
Description: Compounds were incubated at 37 °C at a concentration of 1 μM with CD1 mouse liver microsomes (GIBCO, Thermo Fisher Scientific) in a suspension of 50 mM potassium phosphate buffer (pH 7.4) with a final protein concentration of 0.5 mg/mL. The reaction was started by the addition of excess NADPH and then quenched at several time points starting from time 0, then at 3, 6, 9, 15, and 30 min addition of acetonitrile to an aliquot of the sample. […]
measured parameter: clint (in vitro intrinsic clearance) (mL/min/g liver)
Reply with just the number (in mL/min/g liver).

Observe how each entry below is paired with its result.
# structure smiles, measured parameter, value reported
rows = [
    ("COc1ccccc1-c1cc2c(-c3ccc(C(=O)O)c(C(C)C)c3)ccnc2[nH]1", "clint (in vitro intrinsic clearance)", 2.54),
    ("CCN(CC)Cc1ccc(O)c(-c2cc3c(-c4ccc(C(=O)O)c(C(C)C)c4)ccnc3[nH]2)c1", "clint (in vitro intrinsic clearance)", 1.94),
    ("CCN(CC)Cc1cccc(-c2cc3c(-c4ccc(C(=O)O)c(C(C)C)c4)ccnc3[nH]2)c1", "clint (in vitro intrinsic clearance)", 0.85),
    ("COc1ccc(CN)cc1-c1cc2c(-c3ccc(C(=O)O)c(C(C)C)c3)ccnc2[nH]1", "clint (in vitro intrinsic clearance)", 2.92),
    ("COc1ccc(CN(C)C)cc1-c1cc2c(-c3ccc(C(=O)O)c(C(C)C)c3)ccnc2[nH]1", "clint (in vitro intrinsic clearance)", 2.53),
    ("COc1ccc(CN2CCOCC2)cc1-c1cc2c(-c3ccc(C(=O)O)c(C(C)C)c3)ccnc2[nH]1", "clint (in vitro intrinsic clearance)", 1.60),
]

# input Tell me measured clint (in vitro intrinsic clearance) for CCN(CC)Cc1ccc(OC)c(-c2cc3c(-c4cccc(C(C)C)c4)ccnc3[nH]2)c1 please.
# output 9.54

# input Report measured clint (in vitro intrinsic clearance); entry is CCN(CC)Cc1ccc(OC)c(-c2cc3c(-c4ccc(C(=O)O)c(C(C)C)c4)ccnc3[nH]2)c1
# output 1.12
